Cited source for all entries: patent US8232269B2

# target: Progesterone Receptor (PR) (Homo sapiens, UniProt P06401)
# Construct: endogenous in cells; host or cells: T47D human breast mammary carcinoma cells
# experiment notes: In vitro functional assay for progesterone receptor (PR) antagonists: inhibition of progesterone-induced alkaline phosphatase expression in T47D cells
# Format: cell-based
# run conditions: antagonist format, 5 nM progesterone, Ki calculated from IC50 with the Cheng-Prusoff equation

- smi: "Cc1cc(-c2nn(C(C)C)c(C(=O)NCC3CC3)c2C)ccc1C#N"
  relation qualifier: "="
  Ki / nM: 3.09
- smi: "CC(C)n1nc(-c2ccc(C#N)cc2)c(C2CC2)c1C(=O)NCC(F)(F)F"
  relation qualifier: "="
  Ki / nM: 5.27
- smi: "CNC(=O)c1c(C2CC2)c(-c2ccc(C#N)cc2)nn1C(C)C"
  relation qualifier: ">"
  Ki / nM: 2010
- smi: "CCc1c(-c2ccc(C#N)cc2)nn(C(C)C)c1C(=O)NCC1CC1"
  relation qualifier: "="
  Ki / nM: 8.24
- smi: "CC(C)n1nc(-c2ccc(C#N)cc2)c(C#N)c1C(=O)NCC(C)(C)O"
  relation qualifier: "="
  Ki / nM: 21.9
